# METHOD_DESCRIPTION: yeast display, Sf9 membrane polyspecificity reagent, FACS + sequencing; frameworks hold sequencing errors
READOUT: polyreactivity (PSR sort gate)

QVQLVESGGGLVQAGGSLRLSCAASGRIFVIYAMGWNRQAPGKERELVASITDGTITNYADSVKGRFTISRDNAKNTVYLQMNSLKPEDTAVYYCAAGTQAHAYVVRPIEMDYWGQGTQVTVSS	low polyreactivity
QVQLVESGGGLVQAGGRLRLSCAASGSTFYLNAMGWYRPAHGKERELVAAITRIGGSTYYADSVKGRFTISRDNAKNTVYLQMYSLTPEDTAVYYCAKDYGQARHDRYGYWGAGTQVTVSS	low polyreactivity
QVQLVESGGGLVQAGGSLRLSCAASGSTFTTYAMGWYRQAPGKERELVAAITVDGGGTYYADSVKGRFTISRDNAKNTVYLQMNSLKPVDTAVYYCAAVTKLGYPPVNHLEDDYWGQGTQVTVSS	low polyreactivity
QVQLVDSGGGLVQAGGSLRLTCAASGKIFVPNAMGWNRQAPGKERELVAAIRRGGSTNYADSVKGRFTISRDNAKNSVYLQMNSLKPEDTAVYYCAKSRVSFTDLVGYYWGQGTQVTVSS	low polyreactivity

###

# METHOD_DESCRIPTION: yeast display, Sf9 membrane polyspecificity reagent, FACS + sequencing; frameworks hold sequencing errors
READOUT: polyreactivity (PSR sort gate)

QVQLVESGGGLVQAGGSLRLSCAASGSIFVFYAMGWYRQAPGKERELVAAINDGGSTHYADSVKGRFTISRDNAKNTVYLQMNSLKPEDTAVYYCAAEYVWYRYPDYWGAYDYWGQGTQVTVSS	low polyreactivity
QVQLVESGGGLVQAGGSLRLSCAASGFIFYNYAMGWSRQAPGKERELVAAITGGGSTNYADSVKGRFTISRDNAKTTVYLQMNSLKPEDTAVYYCAAEEGPPWSRYDYWGQGTQVTVSS	low polyreactivity

###

# METHOD_DESCRIPTION: yeast display, Sf9 membrane polyspecificity reagent, FACS + sequencing; frameworks hold sequencing errors
READOUT: polyreactivity (PSR sort gate)

QVQLVESGGGLVHAGGSLRLSCAASGRIFTPYAMGWYRQAPGKERELVAAISGRGGSTYYADSVKGRFTISRDNAKNTVYLQMNSLKPEDTAVYYCAATYFYVYDYWLDYWGQGTQVTVSS	high polyreactivity
QVQLVESGGGLVQAGGSLRLSCAASGSIFLRIAMGWYRQAPGKERELVARIRGGGSTYYADSVKGRFTISRDNAKNTVYLQMNSLKPEDTAVYYCAKDYYKYADGYDYWGQGTQVTVSS	high polyreactivity
HVQLVESGGGLVQAGGSLRLSCAASGIIFYYYTMGWYRPGPRKERELLAWSGGNTYYADSVKGRFTISRDNAKNTVYLQMNSLKPEDTAVYYCNALAIWSDDWDHWISYADDYWGQGTQVTVSS	low polyreactivity
QVQLVESGGGLVQAGGSVRLSCAASGFISPSYAMGWYRQAPGKERELVAAITTSGGSTYYADSVKGRFTISRDNAKNTVYLQMNSLIPEDTAVYYCAAVGPDNSLYEPMDYWGQGTQVTVSS	low polyreactivity
QVQLVESGGGLVQAGGSLRLSCAASGSIFYYYAMGWYRQAPGKERELVASITSGARTNYADSVKGRFTISRDNAKNTVYLQMNILKPEDTAVFYCAADIKWSIRRAYDYWGQGTQVTVSS	high polyreactivity

Source listed as the nanobody polyreactivity screen of Harvey et al. (2022).
